# MEASUREMENT TARGET: T1, recombinant HMG1 purified from E. coli as a calmodulin binding protein (CBP) fusion protein (human, UniProt A9RA84 1-215 (Papio anubis entry))
# T1 sequence: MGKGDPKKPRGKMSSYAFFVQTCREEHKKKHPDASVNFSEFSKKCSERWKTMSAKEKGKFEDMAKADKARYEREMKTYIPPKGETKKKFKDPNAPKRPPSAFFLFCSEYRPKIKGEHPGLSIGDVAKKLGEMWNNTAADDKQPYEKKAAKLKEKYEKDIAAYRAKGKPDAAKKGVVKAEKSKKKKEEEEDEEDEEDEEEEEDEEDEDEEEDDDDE
# ASSAY PROCEDURE: cell-based or functional assay
Strictly below 0.2 µg/mL in IC50, inhibition of rHMG1 stimulated IL-1β release from human PBMC: yes. Otherwise: no.

BINDER: anti-HMG1 antibody G9 (antibody, V domains shown) VH: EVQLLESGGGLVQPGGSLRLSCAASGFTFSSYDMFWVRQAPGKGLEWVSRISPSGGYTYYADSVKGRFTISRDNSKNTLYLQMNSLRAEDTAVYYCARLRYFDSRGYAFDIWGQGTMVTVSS VL: DIQMTQSPGTLSLSPGERATLSCRASQSVRSSYLAWYQQKPGQAPRLLIYGASTRATGIPDRFSGSGSGTDFTLTISRLEPEDFAVYYCQQYGTSRWTFGQGTKVEIK
ASSIGNED LABEL: no
--
BINDER: anti-HMG1 antibody S16 (antibody, V domains shown, also called ATCC PTA-6259) VH: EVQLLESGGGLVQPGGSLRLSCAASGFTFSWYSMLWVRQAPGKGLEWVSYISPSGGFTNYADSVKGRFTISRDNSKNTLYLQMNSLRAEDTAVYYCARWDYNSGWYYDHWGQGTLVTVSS VL: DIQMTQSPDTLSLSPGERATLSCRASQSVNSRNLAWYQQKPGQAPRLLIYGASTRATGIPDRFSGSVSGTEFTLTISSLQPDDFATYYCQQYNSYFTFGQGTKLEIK
ASSIGNED LABEL: no
--
BINDER: anti-HMG1 antibody S17 (antibody, V domains shown) VH: EVQLLESGGGLVQPGGSLRLSCAASGFTFSYYDMHWVRQAPGKGLEWVSRISPSGGYTWYADSVKGRFTISRDNSKNTLYLQMNSLRAEDTAVYYCTRGRYTSGWHEYFDPWGQGTLVTVSS VL: DIQMTQSPSSLSASVGDRVTITCRASQSIGTYLNWYQQKPGTAPKVLIYAASSLQSGVPSRFSGSGSGTDFTLTISSLQPEDFSTYYCQQSYNTPRTFGQGTKLEIK
ASSIGNED LABEL: yes
--
BINDER: anti-HMG1 antibody G12 (antibody, V domains shown) VH: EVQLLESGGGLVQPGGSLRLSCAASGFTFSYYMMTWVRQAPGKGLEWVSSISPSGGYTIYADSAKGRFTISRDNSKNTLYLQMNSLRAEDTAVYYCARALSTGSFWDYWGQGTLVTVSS VL: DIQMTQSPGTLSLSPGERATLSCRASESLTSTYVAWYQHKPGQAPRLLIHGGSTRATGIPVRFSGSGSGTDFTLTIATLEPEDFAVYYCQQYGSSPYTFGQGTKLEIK
ASSIGNED LABEL: no
--
BINDER: anti-HMG1 antibody G2 (antibody, V domains shown) VH: EVQLLESGGGLVQPGGSLRLSCAASGFTFSWYKMQWVRQAPGKGLEWVSGISPSGGSTAYADSVKGRFTISRDNSKNTLYLQMNSLRAEDTAVYYCAKMGLFNTGNSYVDYWGQGTLVTVSS VL: AQSELTQPPSVSEAPGQRVTISCSGSTSNIGNNAVIWYQQLPGKAPKLLIYYDDLLPSGVSDRFSGSKSGTSGSLAISGLQSEDEADYYCASWDDNLNGPLFGGGTKLTVL
ASSIGNED LABEL: no
